Values from PubChem BioAssay AID463173

Entries and their survival
System: Wild type
Assay: S. aureus survival, RN4220 and DeltatarO strains – OD600, teichoic acid synthesis inhibitors, primary screen (AID 463173)
Conditions: S. aureus RN4220 wild type/DeltatarO growth, OD600, 18 h, hits give low values, screened at 18.75 µg/mL (by protocol)
The whole screen tested about 52,000 compounds, of which about 1,700 (3.3%) were called active. The sample holds actives, similar compounds and a random draw of the others, so the mix is not that of the screen.
Measure: survival (%)

# Compound, Reported Measurement
measured = [
    ("Cc1nc(N2CCCC2)c2c(C(=O)Nc3ccc(C)c(Cl)c3)c(C)oc2n1", 130),
    ("CCOC(=O)c1ccc(Nc2cc(-c3ccccc3)nc(C)n2)cc1", 83),
    ("Cc1cccc(NC(=O)c2ccc(F)c(S(=O)(=O)N3CCN(c4ccc(F)cc4)CC3)c2)c1", -3),
    ("Cc1ccc(OCc2nc3ccccc3n2Cc2ccccc2Cl)cc1", 7),
    ("O=C(Nc1ccc(N2CCN(c3ccc(F)cc3)CC2)c(C(=O)O)c1)c1ccccc1F", 76),
    ("CCOc1ccccc1Nc1cc(-c2ccccc2)nc(C)n1", 78),
    ("CN(C)c1ccc(C(CNS(=O)(=O)c2ccc(Cl)cc2)N2CCOCC2)cc1 (stereo unspecified)", 10),
    ("CCc1ccc(N2C(=O)C3C4CCCC4=C4CCCC4C3C2=O)cc1 (stereo unspecified)", 116),
    ("CSc1nc(Nc2ccc(C)cc2C)cc(-c2ccccc2)n1", 50),
    ("C=CCc1ccccc1OCc1nc2ccccc2n1CC", 76),
    ("CC(=O)c1ccc(N2CCN(c3ccc(NC(=O)c4ccc(F)cc4)cc3C(=O)O)CC2)cc1", 14),
    ("CCCCN(c1ccccc1)c1ncnc2c1cnn2-c1cccc(C)c1", 68),
    ("CCCN(C(=O)c1c(C)oc2ncnc(N3CCOCC3)c12)c1ccc(Cl)c(Cl)c1", 74),
    ("C=CCN1C=C/C(=C\\C=C(C#N)C#N)c2ccccc21", 102),
    ("N#CSc1cnc(NC2CCCCC2)s1", 2),
    ("CCc1ccccc1N(CC)C(=O)c1c(C)oc2ncnc(N3CCOCC3)c12", 70),
    ("CCOc1ccccc1NC(=O)c1ccc(F)c(S(=O)(=O)N2CCN(c3ccc(F)cc3)CC2)c1", 60),
    ("Cc1nc(Nc2ccc(Cl)cc2)cc(-c2ccccc2)n1", -2),
    ("COc1ccccc1CCNC(=O)c1ccc2c(c1)c(C)c(C)n2Cc1ccc(Cl)cc1", 77),
    ("Cc1ccc(CCNC(=O)c2c(C)oc3nc(C)nc(N4CCOCC4)c23)cc1", 124),
    ("Cc1ccc(-c2nnc(NC3CCCC3)s2)cc1", 126),
    ("Cc1ccc(Nc2cc(-c3ccccc3)nc(C)n2)cc1", 37),
    ("COc1cccc(-c2nc(CSCC(=O)NCCc3ccc(Cl)cc3)c(C)o2)c1", -1),
    ("COc1cccc(-c2nc(CS(=O)(=O)CC(=O)NCCc3ccc(Cl)cc3)c(C)o2)c1", 78),
    ("Cc1cccc(C(=O)NCc2nc3ccccc3n2Cc2ccccc2Cl)c1", 107),
    ("COc1ccc2c(c1)c1c(c(=O)n(Cc3ccccc3)c(=O)n1Cc1ccccc1Cl)n2C", 84),
]
